- measurement-description: Inhibition of P38
- Design: species or system Homo sapiens
pIC50: −log10 of the molar value.
assay-readout: pIC50

I am curious: what pIC50 value has been reported for `COc1cc2ncc3c(N)nc4c(C)c(N)ccc4c3c2cc1OC` ? < 5.00
